# System: HEK-293T
# Run description: Multiplex assay against HEK293T
# Type: toxicity, cell-based
# Reported conditions: human, 24 h, 10 µM, compound concentration 10 uM, replicate 2
For each of the compounds below, state its Population Mitotic Cells (%).
Return type: number; implicit unit %.

Query string: Entry "CNC(=O)c1ccc(Nc2nc(OC3CCCC3)c3c(-c4ccc5nc(C)oc5c4)c[nH]c3n2)c(OC)c1" has what Population Mitotic Cells (%)?
Result string: 88

Query string: Input "COc1ccc(S(=O)(=O)N(CCO)c2ccccc2CN(C)C/C=C/c2ccc(Cl)cc2)cc1.O=P(O)(O)O"
Result string: 94

Query string: Input "CCOc1cc(C(=O)N2CCC(N3CCN(C)CC3)CC2)ccc1Nc1ncc2c(n1)N(C1CCCC1)c1ccccc1C(=O)N2C"
Result string: 6

Query string: Input "Cc1cc(C)c(S(=O)(=O)N(Cc2ccc(-c3cccc(S(C)(=O)=O)c3)cc2)Cc2ccc(C(F)(F)F)o2)c(C)c1"
Result string: 88

Query string: Input "CCn1cc(-c2ccnc3[nH]c(-c4cccc(CN(C)C)c4)cc23)c(-c2ccc(NC(=O)N(C)C)cc2)n1"
Result string: 89

Query string: Input "CCn1c(=O)c(-c2ccc(-c3cncs3)cc2Cl)cc2cnc(Nc3ccc(N4CCN(C)CC4)cc3)nc21"
Result string: 69

Query string: Input "COc1ccc(-c2ccc3c(N4CCOCC4)nc(N4C[C@@H](C)O[C@@H](C)C4)nc3n2)cc1CO"
Result string: 88

Query string: Input "O=C1N/C(=N/c2ccccc2F)S/C1=C\c1ccc(C(=O)O)cc1"
Result string: 86

Query string: Input "Cc1ccc2nc(NCCN)c3ncc(C)n3c2c1.O=C(O)C(F)(F)F.O=C(O)C(F)(F)F"
Result string: 55

Query string: Input CN1C2CCC1CC(OC(c1ccc(F)cc1)c1ccc(F)cc1)C2.Cl (configuration not stated)
Result string: 11

Query string: Input "O=C(Cc1ccc(-c2ccc(OCCN3CCOCC3)cc2)cn1)NCc1ccccc1"
Result string: 77

Query string: Input "CNc1cc(Oc2cc(C(=O)Nc3cc(N4CCN(C)CC4)cc(C(F)(F)F)c3)ccc2C)ncn1"
Result string: 2

Query string: Input "COc1cc(N2CCN(C)CC2)ccc1Nc1ncc2c(n1)N(C)c1ccccc1C(=O)N2C"
Result string: 23

Query string: Input "CCOc1cc2ncc(C#N)c(Nc3ccc(OCc4ccccn4)c(Cl)c3)c2cc1NC(=O)/C=C/CN(C)C"
Result string: 57

Query string: Input "COc1cccc2cc(-c3nc([C@H]4CC[C@H](C(=O)O)CC4)n4ncnc(N)c34)[nH]c12"
Result string: 100

Query string: Input "O=C(Nc1ccc(Cl)cc1)Nc1cccc(-c2cccc(N3CCCC3)n2)c1"
Result string: 43

Query string: Input CN(C)C(=O)C(CCN1CCC(O)(c2ccc(Cl)cc2)CC1)(c1ccccc1)c1ccccc1.Cl [LOPERAMIDE HYDROCHLORIDE]
Result string: 3

Query string: Input "O=C1NC(=O)C(c2cnc3ccccn23)=C1c1cn2c3c(cc(F)cc13)CN(C(=O)N1CCCCC1)CC2"
Result string: 22

Query string: Input "CCCS(=O)(=O)Nc1ccc(F)c(C(=O)c2c[nH]c3ncc(Cl)cc23)c1F"
Result string: 96

Query string: Input "CCCn1c(=O)c2[nH]c(-c3cnn(Cc4cccc(C(F)(F)F)c4)c3)nc2n(CC)c1=O"
Result string: 82

Query string: Input "CCN1CCN(c2ccc(Nc3cc(N(C)C(=O)Nc4c(Cl)c(OC)cc(OC)c4Cl)ncn3)cc2)CC1"
Result string: 90

Query string: Input "CCc1cccc(CC)c1NC(=O)c1nn(C)c2c1CCc1cnc(Nc3ccc(C(=O)NC4CCN(C)CC4)cc3OC(F)(F)F)nc1-2"
Result string: 6
